- System: CP191
- Assay Details: qHTS profiling for inhibitors of Plasmodium falciparum proliferation (AID 504749); also: nearly all actives have a fitted effect of over 60% in size
- Condition: P. falciparum in erythrocytes, SYBR Green DNA, 72 h; series mostly up to 12.8 µM
Records with an inconclusive call do not appear. Calls of active or inactive are those of the source. Calls follow the shape of the dose curve; as a rule, active = well fitted inhibition curve with a large enough effect; inconclusive = small, poorly fitted or top-dose-only effect; inactive = flat fitted curve, though single readings scatter.
Labels: yes for active, no for inactive

* COc1ccc(CC(N)C(=O)NC2C(CO)OC(n3cnc4c(N(C)C)ncnc43)C2O)cc1 (centres undefined) | yes
* Cc1ccc2c(c1)c1c3n2CCN[C@H]3CCC1 | no
* CC=C(/C(=C/C)c1ccc(O)cc1)c1ccc(O)cc1 | no
* CCN[C@@H]1CN(CCCOC)S(=O)(=O)c2sc(S(N)(=O)=O)cc21 | no
* C[N+]12CCC(CC1)[C@@H](OC(=O)C(O)(c1ccccc1)c1ccccc1)C2 | no
* CN1C(=O)C[C@H](c2ccccc2)C1=O | no
* NCc1ccccc1CC(=O)N[C@@H]1C(=O)N2C(C(=O)O)=C(CSc3nnnn3CC(=O)O)CS[C@@H]12 | no
* CC1(C)SC2C(N3C(=O)C(c4ccccc4)NC3(C)C)C(=O)N2C1C(=O)O (centres undefined) | no
* CN1CCO[C@H](c2ccccc2)c2ccccc2C1 | no
* C[C@@H]1Cc2ccccc2N1NC(=O)c1ccc(Cl)c(S(N)=O)c1 (some centres undefined) | no
* CN[C@H]1[C@H](O)[C@@H](O[C@@H]2[C@H](O)[C@@H](O[C@H]3OC(CN)=CC[C@H]3N)[C@@H](N)C[C@H]2N)OC[C@@]1(C)O | no
* CCN(CC)CCOC(=O)[C@@H](Cc1cccc2ccccc12)C[C@@H]1CCCO1 | no
* C[C@H](N[C@@H](C)COc1ccccc1)[C@H](O)c1ccc(O)cc1 | no
* O=C(Nc1ccccc1)OC[C@H](CN1CCCCC1)OC(=O)Nc1ccccc1 | no

* * *

- Tgt: Cytochrome P450 3A4 (Homo sapiens) (UniProt P08684)
- Sequence (P08684 whole entry, looked up): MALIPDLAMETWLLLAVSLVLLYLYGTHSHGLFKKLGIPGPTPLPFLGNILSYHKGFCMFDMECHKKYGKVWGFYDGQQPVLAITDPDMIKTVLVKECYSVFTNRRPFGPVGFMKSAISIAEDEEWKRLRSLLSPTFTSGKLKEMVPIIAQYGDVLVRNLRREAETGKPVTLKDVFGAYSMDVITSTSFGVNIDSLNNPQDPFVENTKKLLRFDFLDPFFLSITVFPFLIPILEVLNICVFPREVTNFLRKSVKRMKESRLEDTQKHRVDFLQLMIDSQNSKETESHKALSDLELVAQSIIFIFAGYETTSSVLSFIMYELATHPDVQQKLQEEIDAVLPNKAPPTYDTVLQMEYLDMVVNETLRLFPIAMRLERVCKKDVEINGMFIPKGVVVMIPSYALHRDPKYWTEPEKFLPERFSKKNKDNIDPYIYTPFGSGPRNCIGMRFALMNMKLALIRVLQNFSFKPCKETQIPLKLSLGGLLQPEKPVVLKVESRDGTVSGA
- Assay Details: qHTS Assay for Inhibitors and Substrates of Cytochrome P450 3A4 (AID 884); also: nearly all actives have a fitted effect of over 50% in size
- Condition: recombinant CYP3A4, Luciferin-PPXE luminescence; series mostly up to 57.1 µM
Inconclusive results are not listed. Activity calls are given as the source filed them. The call rests on the fitted dose curve; in most records, active means well fitted inhibition curve with a large enough effect; inconclusive means small, poorly fitted or top-dose-only effect; inactive means no such curve, though single readings can be large or run the other way.
Labels: active, inactive

- COc1ccc(-c2coc3cc(O)ccc3c2=O)c(OC)c1O: inactive
- CC(=O)/C=C\C1[C@]2(C)CCCC(C)(C)C2CC[C@@]1(C)O (some centres not stated): inactive
- Nc1nc2ncc(CNc3ccc(C(=O)NC(CCC(=O)O)C(=O)O)cc3)nc2c(=O)[nH]1 (configuration not stated): inactive
- CC1(C)C2CC[C@@]1(C)C(=O)C2: inactive
- CC(C)CCCC(C)C1CCC2C3CC=C4CC(O)CC[C@@]4(C)C3CC[C@@]12C (some centres not stated): inactive
- CC(=O)O[C@]1(C(C)=O)CC[C@@H]2[C@@H]3C=C(C)C4=CC(=O)CC[C@@]4(C)[C@H]3CC[C@]21C: inactive
- CC1O[C@@H](O[C@H]2C(Oc3cc(O)c4c(=O)cc(-c5ccc(O)cc5)oc4c3)OC(CO)C(O)C2O)C(O)C(O)C1O (some centres not stated): inactive
- COc1cc(O)c(C(=O)O)c(O)c1: inactive
- C[C@@]12CCC3c4ccc(OS(=O)(=O)O)cc4CCC3C1CCC2O (some centres not stated): inactive
- NCC1CCCCC1CC(=O)O (configuration not stated): inactive
- CCCc1cc(OC)c2c(c1)OCO2: active
- O=C1CC(c2ccc(O)c(O)c2)Oc2cc(O)cc(O)c21 (configuration not stated): active

* * *

- System: PC49
- Assay Details: qHTS profiling for inhibitors of Plasmodium falciparum proliferation (AID 504749); also: nearly all actives have a fitted effect of over 60% in size
- Condition: P. falciparum in erythrocytes, SYBR Green DNA, 72 h; series mostly up to 12.8 µM
Records with an inconclusive call do not appear. Calls of active or inactive are those of the source. The call rests on the fitted dose curve; in most records, active means well fitted inhibition curve with a large enough effect; inconclusive means small, poorly fitted or top-dose-only effect; inactive means flat fitted curve, though single readings scatter.
Labels: active, inactive

• CC1C2CCC3C4CC=C5CC(N(C)C)CC[C@@]5(C)C4CC[C@@]32CN1C (some centres undefined) = inactive
• Cc1ccc2c(c1)c1c3n2CCN[C@H]3CCC1 = inactive
• CC(=O)OCC(=O)[C@@]12OC3(CCCC3)OC1CC1C3CCC4=CC(=O)C=C[C@@]4(C)[C@]3(F)C(O)C[C@]12C (some centres undefined) = inactive
• CC(C)Oc1ccc2c(=O)cc(-c3ccccc3)oc2c1 = inactive
• NC[C@@H]1O[C@H](O[C@H]2[C@H](O)[C@H](O[C@@H]3O[C@H](CO)[C@@H](O)[C@H](N)[C@@H]3O)[C@@H](N)C[C@H]2N)[C@@H](O)[C@H](O)[C@@H]1O = inactive
• CC[C@H](CO)NCCN[C@@H](CC)CO = inactive
• c1ccc2c(c1)CCC[C@@H]2C1=NCCN1 = inactive
• CC[N+](CC)(CC)CC[C@](O)(c1ccccc1)C1CCCCC1 = inactive
• CC(C)(C)NC[C@H](O)COc1cccc2c1CCC(=O)N2 = inactive
• Cc1cccc(CN2CCN([C@@H](c3ccccc3)c3ccc(Cl)cc3)CC2)c1 = inactive
• COc1ccc(OC)c([C@H](O)CNC(=O)CN)c1 = inactive
• CC(C)NC[C@H]1CCc2cc(CO)c([N+](=O)[O-])cc2N1 = inactive
• CC(C)(C)NC[C@@H](O)COc1ccccc1C1CCCC1 = active
• CC=C(/C(=C/C)c1ccc(O)cc1)c1ccc(O)cc1 = inactive

* * *

Let's look at some molecules and their measured Z-AUC.
- Assay Details: qHTS drug screen for cell cycle checkpoint inhibitors in PARPi-resistant BRCA-mutant ovarian cancer cell lines. (AID 1963452)
- Condition: PEO1/OlaR viability, CellTiter-Glo luminescence, 96 h; stronger effect = lower value
Observation Type: Z-AUC

- C[C@@H]1CC2C3C[C@H](F)C4=CC(=O)C=C[C@]4(C)[C@@]3(F)[C@@H](O)C[C@]2(C)[C@@]1(OC(=O)c1ccco1)C(=O)SCF (some centres undefined): 0.16
- Cc1ccc(Nc2nnc(Cc3ccncc3)c3ccccc23)cc1Br: 0.372
- c1ccc2c(-c3cnn4cc(-c5ccc(OCCN6CCOCC6)cc5)cnc34)ccnc2c1: -1.41
- O=C(NO)c1cnc(NC2(c3ccccc3)CC2)nc1: -0.236

* * *

- Tgt: Rap guanine nucleotide exchange factor 3 (Homo sapiens) (UniProt O95398)
- Sequence (O95398 whole entry, looked up): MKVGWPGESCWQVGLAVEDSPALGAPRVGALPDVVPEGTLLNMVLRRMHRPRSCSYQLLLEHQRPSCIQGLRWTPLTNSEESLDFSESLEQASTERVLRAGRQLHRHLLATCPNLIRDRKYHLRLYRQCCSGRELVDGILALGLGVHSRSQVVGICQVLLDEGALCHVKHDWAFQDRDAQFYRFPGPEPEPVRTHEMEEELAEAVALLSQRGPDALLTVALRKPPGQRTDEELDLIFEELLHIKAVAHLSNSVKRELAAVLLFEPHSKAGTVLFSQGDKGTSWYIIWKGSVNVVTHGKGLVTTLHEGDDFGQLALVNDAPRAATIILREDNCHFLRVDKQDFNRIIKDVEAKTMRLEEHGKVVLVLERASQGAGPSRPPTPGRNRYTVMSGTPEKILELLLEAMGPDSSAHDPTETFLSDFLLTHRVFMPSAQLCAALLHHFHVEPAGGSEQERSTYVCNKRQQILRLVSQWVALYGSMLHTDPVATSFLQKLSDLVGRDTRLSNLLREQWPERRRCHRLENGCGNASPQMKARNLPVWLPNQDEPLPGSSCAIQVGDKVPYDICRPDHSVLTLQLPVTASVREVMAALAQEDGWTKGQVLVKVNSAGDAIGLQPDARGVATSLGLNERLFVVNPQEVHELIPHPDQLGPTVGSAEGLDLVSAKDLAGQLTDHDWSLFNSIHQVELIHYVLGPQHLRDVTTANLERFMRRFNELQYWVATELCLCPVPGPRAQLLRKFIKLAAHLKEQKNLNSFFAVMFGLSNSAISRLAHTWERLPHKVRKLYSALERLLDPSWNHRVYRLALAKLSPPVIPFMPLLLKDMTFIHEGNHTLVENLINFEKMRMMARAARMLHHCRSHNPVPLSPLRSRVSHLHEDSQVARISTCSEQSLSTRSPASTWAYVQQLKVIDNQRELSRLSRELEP
- Assay Details: Confirmatory qHTS for antagonist of cAMP-regulated guanine nucleotide exchange factor 3 (EPAC1) (AID 1645880);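 also: plate controls were DMSO only for no effect and full effect of the ATA control for full effect; nearly all actives have a fitted effect of over 55% in size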
- Condition: EPAC1 Rap1B-BODIPY-GDP exchange, fluorescence; series mostly up to 115 µM
Records with an inconclusive call do not appear. Active and inactive are the calls of the source. The call rests on the fitted dose curve; in most records, active means well fitted inhibition curve with a large enough effect; inconclusive means small, poorly fitted or top-dose-only effect; inactive means no such curve, though single readings can be large or run the other way.
Observation Type: outcome

* CCOc1cc(C(=O)Nc2ccc3c(c2)n(C)c(=O)c(=O)n3C)cc(OCC)c1OCC | inactive
* CC(=O)CCc1oc2ccc(C)cc2c1-c1ccccc1 | inactive
* COC1C(CO)OC(n2c3c(Cl)cccc3c3c4c(c5c6cccc(Cl)c6[nH]c5c32)C(=O)NC4=O)C(O)C1O (stereo not drawn) | inactive

* * *

- System: DIV14
- Assay Details: qHTS profiling for inhibitors of Plasmodium falciparum proliferation (AID 504749); also: nearly all actives have a fitted effect of over 60% in size
- Condition: P. falciparum in erythrocytes, SYBR Green DNA, 72 h; series mostly up to 12.8 µM
Records with an inconclusive call do not appear. The source made the active and inactive calls. The call rests on the fitted dose curve; in most records, active means well fitted inhibition curve with a large enough effect; inconclusive means small, poorly fitted or top-dose-only effect; inactive means flat fitted curve, though single readings scatter.
Labels: active, inactive

• NC(=O)N[C@H]1NC(=O)NC1=O = inactive
• OCC1OC([S-])[C@H](O)C(O)C1O.[Au+] (some centres undefined) = inactive
• CC(=O)OCC(=O)[C@@]12OC(C)(C)O[C@@H]1C[C@H]1[C@H]3C[C@H](F)C4=CC(=O)C=C[C@@]4(C)[C@]3(F)[C@H](O)C[C@@]12C = inactive
• COc1cc2nc(N3CCN(C(=O)[C@@H]4CCCO4)CC3)nc(N)c2cc1OC = inactive
• NCc1ccccc1CC(=O)N[C@@H]1C(=O)N2C(C(=O)O)=C(CSc3nnnn3CC(=O)O)CS[C@@H]12 = inactive
• O=C1O[C@@H]([C@@H](O)CO)[C@@H](O)[C@H]1O = inactive
• COc1ccc2cc(C(C)CO)ccc2c1 (centres undefined) = inactive
• COc1cc2nc(N3CCN(C(=O)[C@@H]4COc5ccccc5O4)CC3)nc(N)c2cc1OC = active
• CCOC(=O)O[C@]1(C(=O)COC(=O)CC)CC[C@@H]2[C@@H]3CCC4=CC(=O)C=C[C@@]4(C)[C@H]3[C@H](O)C[C@]21C = inactive
• CNC1C(OC2C(O[C@@H]3C(O)C(O)[C@@H](N=C(N)N)C(O)C3N=C(N)N)OC(C)[C@@]2(O)CO)OC(CO)C(O)C1O (some centres undefined) = inactive
• CC(=O)N[C@H](CC(C)C)C(=O)O = inactive
• C=C1c2c(Cl)ccc(O)c2C(O)=C2C(=O)[C@@]3(O)C(O)=C(C(N)=O)C(=O)[C@@H](N(C)C)[C@@H]3[C@@H](O)[C@H]12 = inactive
• NS(=O)(=O)c1cc2c(cc1Cl)N[C@@H](CC1CCCC1)NS2(=O)=O = inactive
• CC1CCC(C(C)C)C(=O)C1 (centres undefined) = inactive
• C#C[C@]1(O)CC[C@@H]2[C@H]3CCC4=CCCC[C@@H]4[C@@H]3CC[C@@]21C = inactive
• C[C@@H]1O[C@H](O[C@@H]2\C=C/C=C\C=C/C=C\C[C@H](C)OC(=O)/C=C\[C@H]3O[C@@H]3C[C@H](O)C[C@]3(O)C[C@@H](O)[C@@H](C(=O)O)[C@H](C2)O3)[C@@H](O)[C@H](N)[C@@H]1O (stereo in doubt) = inactive
• CC(=O)OCC(=O)[C@@]1(O)[C@H](C)C[C@@H]2[C@H]3CCC4=CC(=O)C=C[C@]4(C)[C@]3(F)[C@@H](O)C[C@@]21C = inactive
• COC1C=CO[C@@]2(C)Oc3c(C)c(O)c4c(O)c(c5c(nc6cc(C)ccn65)c4c3C2=O)NC(=O)/C(C)=C\C=CC(C)C(O)[C@@H](C)C(O)C(C)[C@@H](OC(C)=O)C1C (some centres undefined) = active
• Clc1ccc([C@H](Cn2ccnc2)OCc2csc3c(Cl)cccc23)c(Cl)c1 = active
